tgt: CDK9-Cyclin T1 (Homo sapiens)
measurement.description: Kinase profiling CDK9-Cyclin T1
Format: biochemical
setup.conditions: 100 micromolar inhibitor concentration; 100 is no change
quantity.measured: residual kinase activity, CDK9-Cyclin T1
One number for each entry.

Solved entries:
{"columns": ["smiles.notation", "residual kinase activity, CDK9-Cyclin T1"],
 "data": [
  ["CC(=O)Nc1nc2cc(C)ccc2s1", 49],
  ["O=C(Nc1nc2ccc(O)cc2s1)c1ccncc1", 66],
  ["CC(=O)Nc1nc2ccccc2s1", 45],
  ["O=C(Nc1nc2cc(O)ccc2s1)c1ccccn1", 93],
  ["O=C(Nc1nc2ccc(O)cc2s1)c1ccccc1", 76],
  ["O=C(Nc1nc2ccc(O)cc2s1)c1cccnc1", 43],
  ["O=C(Nc1nc2cc(O)ccc2s1)c1ccncc1", 68],
  ["O=C(Nc1nc2ccc(O)cc2s1)c1ccccn1", 76]
]}

We next turn to a different compound, shown below.
Using the record for `O=C(Nc1nc2cc(O)ccc2s1)c1cccnc1` , report its residual kinase activity, CDK9-Cyclin T1.
97

---

tgt: PKA (Homo sapiens)
measurement.description: Kinase profiling PKA
Format: biochemical
setup.conditions: 100 micromolar inhibitor concentration; 100 is no change
Give T when the value for residual kinase activity, PKA is at least 100. Give F when it is less.

Please indicate if the recorded residual kinase activity, PKA for `O=C(Nc1nc2cc(O)ccc2s1)c1ccncc1` meets or exceeds 100.
T

---

tgt: EIF2AK3 (Homo sapiens, UniProt Q9NZJ5)
Sequence (Q9NZJ5 30-1116, species assumed): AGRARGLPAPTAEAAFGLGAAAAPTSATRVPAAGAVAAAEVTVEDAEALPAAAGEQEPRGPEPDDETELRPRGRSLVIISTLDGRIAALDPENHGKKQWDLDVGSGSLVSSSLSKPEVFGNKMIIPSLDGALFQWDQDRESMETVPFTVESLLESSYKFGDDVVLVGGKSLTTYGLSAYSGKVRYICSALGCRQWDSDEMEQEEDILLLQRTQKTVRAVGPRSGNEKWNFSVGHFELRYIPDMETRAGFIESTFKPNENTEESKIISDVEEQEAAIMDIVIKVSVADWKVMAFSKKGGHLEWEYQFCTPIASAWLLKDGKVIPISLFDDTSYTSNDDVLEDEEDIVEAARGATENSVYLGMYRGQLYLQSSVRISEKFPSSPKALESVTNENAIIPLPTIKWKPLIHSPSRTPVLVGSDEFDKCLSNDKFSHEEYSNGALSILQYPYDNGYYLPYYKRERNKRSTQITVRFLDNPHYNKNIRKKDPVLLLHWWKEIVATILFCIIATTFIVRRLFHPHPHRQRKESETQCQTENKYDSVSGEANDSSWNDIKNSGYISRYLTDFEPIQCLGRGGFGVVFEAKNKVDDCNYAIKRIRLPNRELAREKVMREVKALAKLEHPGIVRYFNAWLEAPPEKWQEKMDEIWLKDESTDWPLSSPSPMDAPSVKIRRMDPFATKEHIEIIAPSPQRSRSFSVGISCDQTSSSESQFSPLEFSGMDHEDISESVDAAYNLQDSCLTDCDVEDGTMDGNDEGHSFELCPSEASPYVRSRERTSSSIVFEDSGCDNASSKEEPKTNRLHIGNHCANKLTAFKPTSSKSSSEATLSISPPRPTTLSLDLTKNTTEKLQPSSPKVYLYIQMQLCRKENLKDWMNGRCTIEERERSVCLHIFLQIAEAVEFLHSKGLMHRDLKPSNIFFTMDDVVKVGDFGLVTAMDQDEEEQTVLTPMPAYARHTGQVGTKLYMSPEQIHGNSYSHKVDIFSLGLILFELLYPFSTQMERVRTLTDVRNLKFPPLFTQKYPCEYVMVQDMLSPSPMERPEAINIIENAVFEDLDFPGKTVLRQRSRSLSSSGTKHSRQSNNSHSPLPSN
measurement.description: Kinase profiling EIF2AK3
Assay type: biochemical
setup.conditions: 100 micromolar inhibitor concentration; 100 is no change; read-out: residual kinase activity, EIF2AK3
quantity.measured: remaining activity at 100 µM (%)
Numbers only, in %.

{"columns": ["smiles.notation", "unit.abbreviation", "remaining activity at 100 µM"],
 "data": [
  ["COc1ccc2sc(NC(C)=O)nc2c1", "%", 82],
  ["CC(=O)Nc1nc2cc(F)ccc2s1", "%", 99],
  ["CC(=O)Nc1nc2ccc(O)cc2s1", "%", 77]
]}

Items follow; give remaining activity at 100 µM for each.
1. CC(=O)Nc1nc2ccc(C(F)(F)F)cc2s1
2. CC(=O)Nc1nc2ccc(C#N)cc2s1
3. CC(=O)Nc1nc2cc(C(F)(F)F)ccc2s1

105
78
100

---

tgt: PDK1 (Homo sapiens, UniProt O15530)
Sequence (O15530 whole entry): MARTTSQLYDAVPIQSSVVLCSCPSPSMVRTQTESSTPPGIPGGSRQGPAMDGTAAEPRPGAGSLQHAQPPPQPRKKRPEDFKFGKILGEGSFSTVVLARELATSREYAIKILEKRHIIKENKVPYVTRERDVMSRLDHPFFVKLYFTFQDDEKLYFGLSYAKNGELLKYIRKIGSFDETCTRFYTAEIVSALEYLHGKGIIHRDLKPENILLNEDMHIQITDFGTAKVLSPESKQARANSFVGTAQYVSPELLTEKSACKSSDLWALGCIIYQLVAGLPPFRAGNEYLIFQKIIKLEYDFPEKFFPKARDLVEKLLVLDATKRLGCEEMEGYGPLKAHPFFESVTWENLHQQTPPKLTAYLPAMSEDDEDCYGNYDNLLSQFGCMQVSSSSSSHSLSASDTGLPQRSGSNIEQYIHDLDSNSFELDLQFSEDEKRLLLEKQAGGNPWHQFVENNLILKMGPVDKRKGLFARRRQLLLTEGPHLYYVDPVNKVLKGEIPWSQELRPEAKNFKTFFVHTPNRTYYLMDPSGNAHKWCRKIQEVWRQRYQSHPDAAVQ
measurement.description: Kinase profiling PDK1
Type: biochemical
setup.conditions: 100 micromolar inhibitor concentration; 100 is no change; read-out: residual kinase activity, PDK1
Exercise: state measured remaining activity at 100 µM for each of the molecules provided.
Numbers only, in %.

# example entries with known answers
{"columns": ["molecule", "remaining activity at 100 µM (%)"],
 "data": [
  ["CC(=O)Nc1nc2cc(F)ccc2s1 [Compound 03-77]", 91],
  ["CC(=O)Nc1nc2ccc(C(F)(F)F)cc2s1 [Compound 01-90]", 93],
  ["CC(=O)Nc1nc2cc(C(F)(F)F)ccc2s1 [Compound 03-73]", 105]
]}

Items follow; give remaining activity at 100 µM for each.
1. COc1ccc2sc(NC(C)=O)nc2c1 [Compound 03-21]
2. CC(=O)Nc1nc2ccc(O)cc2s1 [Compound 01-71]
3. CC(=O)Nc1nc2ccc([N+](=O)[O-])cc2s1 [Compound 13-10]
4. CC(=O)Nc1nc2ccc(C#N)cc2s1 [Compound 01-94]

1: 115; 2: 63; 3: 93; 4: 97

---

Kindly state remaining activity at 100 µM for each of the entries shown.
tgt: UniProt:P53350
Sequence (P53350 whole entry, species assumed): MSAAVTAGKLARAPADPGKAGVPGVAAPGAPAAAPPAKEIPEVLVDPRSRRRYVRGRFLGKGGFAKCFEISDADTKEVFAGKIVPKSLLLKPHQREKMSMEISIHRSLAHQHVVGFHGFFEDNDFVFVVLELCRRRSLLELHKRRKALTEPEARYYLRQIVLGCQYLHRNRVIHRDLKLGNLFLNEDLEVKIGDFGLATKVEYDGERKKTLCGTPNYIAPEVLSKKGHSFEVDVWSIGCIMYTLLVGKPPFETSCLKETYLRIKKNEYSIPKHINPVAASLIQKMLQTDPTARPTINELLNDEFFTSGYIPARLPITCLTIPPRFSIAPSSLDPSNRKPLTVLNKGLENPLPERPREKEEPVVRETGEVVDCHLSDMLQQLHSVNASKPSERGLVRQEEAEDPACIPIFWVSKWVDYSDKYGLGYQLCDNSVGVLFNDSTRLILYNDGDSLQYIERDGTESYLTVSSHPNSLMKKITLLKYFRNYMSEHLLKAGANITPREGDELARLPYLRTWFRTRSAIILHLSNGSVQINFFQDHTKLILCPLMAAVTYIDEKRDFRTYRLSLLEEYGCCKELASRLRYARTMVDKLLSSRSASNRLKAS
measurement.description: Kinase profiling PLK1
Assay type: biochemical
setup.conditions: 100 micromolar inhibitor concentration; 100 is no change; read-out: residual kinase activity, PLK1
Answers are plain numbers, in %.

{"columns": ["smiles.notation", "value"],
 "data": [
  ["CC(=O)Nc1nc2ccc(O)cc2s1", 97],
  ["CC(=O)Nc1nc2cc(C(F)(F)F)ccc2s1", 91],
  ["CC(=O)Nc1nc2ccc(C#N)cc2s1", 108]
]}

Items follow; give remaining activity at 100 µM for each.
1. CC(=O)Nc1nc2cc(F)ccc2s1
2. CC(=O)Nc1nc2ccc(C(F)(F)F)cc2s1
3. CC(=O)Nc1nc2ccc([N+](=O)[O-])cc2s1
4. COc1ccc2sc(NC(C)=O)nc2c1

1. 78
2. 80
3. 96
4. 90

---

tgt: MST3 (Homo sapiens)
Sequence (Q9Y6E0 whole entry, species assumed): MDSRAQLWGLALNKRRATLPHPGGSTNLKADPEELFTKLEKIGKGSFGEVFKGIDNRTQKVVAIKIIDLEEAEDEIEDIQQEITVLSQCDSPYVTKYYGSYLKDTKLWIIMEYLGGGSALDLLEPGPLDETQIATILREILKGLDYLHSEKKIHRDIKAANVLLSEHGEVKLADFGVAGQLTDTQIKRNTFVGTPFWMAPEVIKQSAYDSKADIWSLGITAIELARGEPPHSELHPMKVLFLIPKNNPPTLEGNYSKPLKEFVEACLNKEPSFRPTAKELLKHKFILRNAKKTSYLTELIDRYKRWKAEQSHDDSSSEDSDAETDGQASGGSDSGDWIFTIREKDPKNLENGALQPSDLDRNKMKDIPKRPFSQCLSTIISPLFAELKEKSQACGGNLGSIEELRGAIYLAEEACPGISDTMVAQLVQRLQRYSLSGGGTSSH
measurement.description: Kinase profiling MST3
Type: biochemical
setup.conditions: 100 micromolar inhibitor concentration; 100 is no change; read-out: residual kinase activity, MST3
quantity.measured: remaining activity at 100 µM (%)
Answers are plain numbers, in %.

{"columns": ["smiles.notation", "tgt", "value"],
 "data": [
  ["CC(=O)Nc1nc2cc(F)ccc2s1", "MST3 (Homo sapiens)", 87],
  ["CC(=O)Nc1nc2cc(C(F)(F)F)ccc2s1", "MST3 (Homo sapiens)", 89],
  ["CC(=O)Nc1nc2ccc(C#N)cc2s1", "MST3 (Homo sapiens)", 71],
  ["COc1ccc2sc(NC(C)=O)nc2c1", "MST3 (Homo sapiens)", 91]
]}

Lab note: each molecule below needs its remaining activity at 100 µM filled in.
1. CC(=O)Nc1nc2ccc(C(F)(F)F)cc2s1
2. CC(=O)Nc1nc2ccc(O)cc2s1

85
66

---

Please go through the items and note down their remaining activity at 100 µM.
tgt: Src (Homo sapiens)
Sequence (P12931 whole entry, species assumed): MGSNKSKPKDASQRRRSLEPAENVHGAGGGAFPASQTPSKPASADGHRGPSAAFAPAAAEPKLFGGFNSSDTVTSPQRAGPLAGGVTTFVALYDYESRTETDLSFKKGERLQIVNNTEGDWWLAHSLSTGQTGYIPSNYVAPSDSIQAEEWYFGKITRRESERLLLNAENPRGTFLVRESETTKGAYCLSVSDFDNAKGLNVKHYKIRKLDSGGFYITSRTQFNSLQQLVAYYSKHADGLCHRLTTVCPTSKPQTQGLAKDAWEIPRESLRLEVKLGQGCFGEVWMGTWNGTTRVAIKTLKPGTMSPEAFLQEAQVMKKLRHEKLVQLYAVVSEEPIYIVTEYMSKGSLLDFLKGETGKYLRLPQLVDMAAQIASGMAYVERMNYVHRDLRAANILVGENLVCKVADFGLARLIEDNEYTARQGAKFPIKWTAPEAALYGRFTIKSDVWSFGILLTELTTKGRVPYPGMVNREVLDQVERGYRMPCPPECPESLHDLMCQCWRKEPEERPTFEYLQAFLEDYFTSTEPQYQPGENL
measurement.description: Kinase profiling Src
Assay type: biochemical
setup.conditions: 100 micromolar inhibitor concentration; 100 is no change; read-out: residual kinase activity, Src
Give bare numbers, in %.

As a guide, the following entries are already answered.
{"columns": ["smiles.notation", "tgt", "remaining activity at 100 µM / %"],
 "data": [
  ["CC(=O)Nc1nc2cc(F)ccc2s1", "Src (Homo sapiens)", 80],
  ["CC(=O)Nc1nc2ccc(C(F)(F)F)cc2s1", "Src (Homo sapiens)", 63],
  ["CC(=O)Nc1nc2ccc(C#N)cc2s1", "Src (Homo sapiens)", 94],
  ["COc1ccc2sc(NC(C)=O)nc2c1", "Src (Homo sapiens)", 86],
  ["CC(=O)Nc1nc2ccc([N+](=O)[O-])cc2s1", "Src (Homo sapiens)", 85]
]}

Respectfully, I request remaining activity at 100 µM for each entry included below.
1. CC(=O)Nc1nc2ccc(O)cc2s1
2. CC(=O)Nc1nc2cc(C(F)(F)F)ccc2s1

1. 57
2. 74

---

tgt: ERK2 (Homo sapiens, UniProt P28482)
Sequence (P28482 whole entry, species assumed): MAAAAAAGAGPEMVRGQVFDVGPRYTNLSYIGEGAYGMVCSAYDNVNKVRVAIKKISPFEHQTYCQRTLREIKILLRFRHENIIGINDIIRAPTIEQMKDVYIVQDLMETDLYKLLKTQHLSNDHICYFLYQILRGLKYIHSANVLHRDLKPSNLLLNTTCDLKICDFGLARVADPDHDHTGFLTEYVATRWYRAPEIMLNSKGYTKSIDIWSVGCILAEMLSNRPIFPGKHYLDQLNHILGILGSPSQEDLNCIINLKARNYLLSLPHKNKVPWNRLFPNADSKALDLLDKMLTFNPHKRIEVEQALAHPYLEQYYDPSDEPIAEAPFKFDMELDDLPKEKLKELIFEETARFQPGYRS
measurement.description: Kinase profiling ERK2
Format: biochemical
setup.conditions: 100 micromolar inhibitor concentration; 100 is no change; read-out: residual kinase activity, ERK2
quantity.measured: remaining activity at 100 µM (%)
Answers are plain numbers, in %.

Hi there! I need remaining activity at 100 µM for each item below, if you can.
1. CC(=O)Nc1nc2cc(F)ccc2s1
2. CC(=O)Nc1nc2ccc(C#N)cc2s1
3. CC(=O)Nc1nc2ccc(C(F)(F)F)cc2s1
4. CC(=O)Nc1nc2ccc(O)cc2s1

99
91
102
83

For each entry beneath this line, provide reported remaining activity at 100 µM.
1. CC(=O)Nc1nc2cc(C(F)(F)F)ccc2s1
2. COc1ccc2sc(NC(C)=O)nc2c1

108
109

---

tgt: MAP4K3 (Homo sapiens)
Sequence (Q8IVH8 whole entry, species assumed): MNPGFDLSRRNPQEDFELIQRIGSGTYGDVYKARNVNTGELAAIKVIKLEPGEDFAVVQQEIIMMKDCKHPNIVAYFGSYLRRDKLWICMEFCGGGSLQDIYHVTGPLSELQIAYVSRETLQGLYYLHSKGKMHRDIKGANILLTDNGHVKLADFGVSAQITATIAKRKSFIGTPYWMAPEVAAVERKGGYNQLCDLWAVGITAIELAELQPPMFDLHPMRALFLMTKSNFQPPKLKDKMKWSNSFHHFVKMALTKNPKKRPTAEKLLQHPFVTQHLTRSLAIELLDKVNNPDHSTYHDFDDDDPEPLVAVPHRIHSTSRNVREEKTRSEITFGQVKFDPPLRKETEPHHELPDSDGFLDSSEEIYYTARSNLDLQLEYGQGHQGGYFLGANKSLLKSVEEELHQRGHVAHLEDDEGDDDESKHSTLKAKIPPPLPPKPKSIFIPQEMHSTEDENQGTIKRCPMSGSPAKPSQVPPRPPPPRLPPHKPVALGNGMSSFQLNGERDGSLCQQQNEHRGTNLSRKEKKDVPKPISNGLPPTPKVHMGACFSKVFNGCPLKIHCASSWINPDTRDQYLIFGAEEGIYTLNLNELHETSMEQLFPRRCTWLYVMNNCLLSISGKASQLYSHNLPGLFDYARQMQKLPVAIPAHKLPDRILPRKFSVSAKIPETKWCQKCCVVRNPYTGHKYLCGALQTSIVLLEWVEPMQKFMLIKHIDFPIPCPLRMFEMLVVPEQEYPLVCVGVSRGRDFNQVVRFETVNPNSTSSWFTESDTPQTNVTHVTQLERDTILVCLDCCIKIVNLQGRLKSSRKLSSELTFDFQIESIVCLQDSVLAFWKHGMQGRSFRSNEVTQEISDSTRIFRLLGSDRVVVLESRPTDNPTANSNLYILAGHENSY
measurement.description: Kinase profiling MAP4K3
Type: biochemical
setup.conditions: 100 micromolar inhibitor concentration; 100 is no change
quantity.measured: residual kinase activity, MAP4K3

Examples with answers:
{"columns": ["smiles.notation", "tgt", "quantity.measured", "value"],
 "data": [
  ["O=C(Nc1nc2ccc(O)cc2s1)c1ccccn1", "MAP4K3 (Homo sapiens)", "residual kinase activity, MAP4K3", 54],
  ["O=C(Nc1nc2cc(O)ccc2s1)c1ccncc1", "MAP4K3 (Homo sapiens)", "residual kinase activity, MAP4K3", 73],
  ["O=C(Nc1nc2ccc(O)cc2s1)c1ccccc1", "MAP4K3 (Homo sapiens)", "residual kinase activity, MAP4K3", 56]
]}

Give residual kinase activity, MAP4K3 for each listed item.
1. CC(=O)Nc1nc2cc(C)ccc2s1
2. O=C(Nc1nc2cc(O)ccc2s1)c1cccnc1

1. 80
2. 69

Report residual kinase activity, MAP4K3 for every entry below.
1. O=C(Nc1nc2ccc(O)cc2s1)c1ccncc1
2. CC(=O)Nc1nc2ccccc2s1

1: 48; 2: 90

Please give residual kinase activity, MAP4K3, item by item, for the list that follows.
1. O=C(Nc1nc2ccc(O)cc2s1)c1cccnc1
2. O=C(Nc1nc2cc(O)ccc2s1)c1ccccn1

[56, 67]

---

tgt: NEK2a (Homo sapiens)
Sequence (P51955 whole entry, species assumed): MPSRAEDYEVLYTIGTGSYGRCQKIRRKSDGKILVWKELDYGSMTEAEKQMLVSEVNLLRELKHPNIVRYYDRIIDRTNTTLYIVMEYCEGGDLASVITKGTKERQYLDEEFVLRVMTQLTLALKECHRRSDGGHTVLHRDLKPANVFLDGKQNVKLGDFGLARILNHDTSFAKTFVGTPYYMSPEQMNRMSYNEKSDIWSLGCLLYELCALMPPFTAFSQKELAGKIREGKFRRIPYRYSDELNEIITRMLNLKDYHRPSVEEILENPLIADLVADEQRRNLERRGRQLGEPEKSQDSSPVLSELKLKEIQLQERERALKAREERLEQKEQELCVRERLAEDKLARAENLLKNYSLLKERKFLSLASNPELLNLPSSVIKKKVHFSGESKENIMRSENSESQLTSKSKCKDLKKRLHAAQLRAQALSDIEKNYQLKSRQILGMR
measurement.description: Kinase profiling NEK2a
Type: biochemical
setup.conditions: 100 micromolar inhibitor concentration; 100 is no change; read-out: residual kinase activity, NEK2a
quantity.measured: remaining activity at 100 µM

{"columns": ["smiles.notation", "remaining activity at 100 µM"],
 "data": [
  ["CC(=O)Nc1nc2ccc(O)cc2s1", "75%"],
  ["COc1ccc2sc(NC(C)=O)nc2c1", "93%"],
  ["CC(=O)Nc1nc2cc(C(F)(F)F)ccc2s1", "94%"],
  ["CC(=O)Nc1nc2cc(F)ccc2s1", "90%"],
  ["CC(=O)Nc1nc2ccc(C#N)cc2s1", "60%"]
]}

Shifting focus to the compound that follows.
Which remaining activity at 100 µM reading was recorded for the compound `CC(=O)Nc1nc2ccc(C(F)(F)F)cc2s1` ?
78%
